- System: CCRIS mutagenicity, Ames/micronucleus/aberration tests
- Assay notes: CCRIS mutagenicity studies
- Condition description: Test System: AMES SALMONELLA TYPHIMURIUM; Strain/Indicator: TA100; Method: PREINCUBATION
- Text: The CCRIS database contains chemical records with carcinogenicity, mutagenicity, tumor promotion, and tumor inhibition test results. It was developed by the National Cancer Institute (NCI). Data are derived from studies cited in primary journals, current awareness tools, NCI reports, and other sources. Test results have been reviewed by experts in carcinogenesis and mutagenesis. CCRIS provides historical information from the years 1985 - 2011. It is no longer updated. […]
Calls of active or inactive are those of the source. The rule behind the calls is not given here.
A correct response names exactly one class from Y for active, N for inactive

Data request: Per the records of this test, what outcome belongs to `CN(C)c1ccc(C(=C2C=CC(=[N+](C)C)C=C2)c2ccccc2)cc1` ?
Data returned: Y

Data request: Per the records of this test, what outcome belongs to `CC(=O)c1ccccc1[N+](=O)[O-]` ?
Data returned: N

Data request: Per the records of this test, what outcome belongs to CCCCN(CC(O)c1ccc(O)cc1)N=O (stereo not given) ?
Data returned: N

Data request: Per the records of this test, what outcome belongs to `O=[N+]([O-])c1ccccc1O` ?
Data returned: N

Data request: Per the records of this test, what outcome belongs to `COc1cccc([N+](=O)[O-])c1` ?
Data returned: N

###

- Tested on: CCRIS mutagenicity, Ames/micronucleus/aberration tests
- Assay notes: CCRIS mutagenicity studies
- Condition description: Test System: CHINESE HAMSTER OVARY; Strain/Indicator: CHO-K1-BH4 (HGPRT); Metabolic Activation: NONE; Method: SUSPENSION/PLATE
- Source text: The CCRIS database contains chemical records with carcinogenicity, mutagenicity, tumor promotion, and tumor inhibition test results. It was developed by the National Cancer Institute (NCI). Data are derived from studies cited in primary journals, current awareness tools, NCI reports, and other sources. Test results have been reviewed by experts in carcinogenesis and mutagenesis. CCRIS provides historical information from the years 1985 - 2011. It is no longer updated. […]
Activity calls are given as the source filed them. No rule for the calls is given here.
Readout: mutagenic call

Data request: Give the measured mutagenic call for `O=[N+]([O-])c1ccc(-c2ccccc2)cc1`
Data returned: inactive; negative

Data request: Give the measured mutagenic call for `CC[n+]1c(-c2ccccc2)c2cc(N)ccc2c2ccc(N)cc21`
Data returned: inactive; negative

Data request: Give the measured mutagenic call for `CCN(CCCl)CCCNc1c2ccc(Cl)cc2nc2ccc(OC)cc12`
Data returned: active; positive

Data request: Give the measured mutagenic call for `C=CC(=O)OC`
Data returned: active; positive

###

- System: CCRIS mutagenicity, Ames/micronucleus/aberration tests
- Assay notes: CCRIS mutagenicity studies
- Condition description: Test System: AMES SALMONELLA TYPHIMURIUM; Strain/Indicator: TA98; Metabolic Activation: RAT, LIVER, S-9, PCB; Method: PREINCUBATION
Calls of active or inactive are those of the source. The rule behind the calls is not given here.
A correct response names exactly one class from active, inactive

Data request: Per the records of this test, what outcome belongs to `Cc1ccc(NN=NCc2ccccc2)cc1` ?
Data returned: active

Data request: Per the records of this test, what outcome belongs to `Nc1cccc(N)c1` ?
Data returned: active

Data request: Per the records of this test, what outcome belongs to `NC(=O)c1ccccc1O` ?
Data returned: inactive

Data request: Per the records of this test, what outcome belongs to `OCCN1CCNCC1` ?
Data returned: inactive

Data request: Per the records of this test, what outcome belongs to `COc1c(C=O)c(O)cc2c1C(=O)c1ccccc1C2=O` ?
Data returned: inactive

Data request: Per the records of this test, what outcome belongs to CC1(C)CC(N)CC(C)(CN)C1 (stereo unspecified) ?
Data returned: inactive

Data request: Per the records of this test, what outcome belongs to `NCCNCCO` ?
Data returned: inactive

Data request: Per the records of this test, what outcome belongs to `NCCNCCNCCN` ?
Data returned: active

Data request: Per the records of this test, what outcome belongs to `Cc1cc(N=Nc2ccccc2C)ccc1N` ?
Data returned: active

Data request: Per the records of this test, what outcome belongs to `CN1CCNCC1` ?
Data returned: inactive

Data request: Per the records of this test, what outcome belongs to `Nc1ccc2nc3ccccc3nc2c1` ?
Data returned: active

Data request: Per the records of this test, what outcome belongs to `Clc1nncc2cnccc12` ?
Data returned: inactive

Data request: Per the records of this test, what outcome belongs to `COc1ccc2c(c1O)C(=O)c1ccccc1C2=O` ?
Data returned: inactive

Data request: Per the records of this test, what outcome belongs to `NCCCNCCCN` ?
Data returned: inactive

Data request: Per the records of this test, what outcome belongs to `C[C@H](CCC(=O)O)[C@H]1CC[C@H]2[C@@H]3CC[C@@H]4C[C@H](O)CC[C@]4(C)[C@H]3C[C@@H](O)[C@]12C` ?
Data returned: inactive

Data request: Per the records of this test, what outcome belongs to `Cc1cc2nc3ccc(C)c(N)c3nc2cc1N` ?
Data returned: active

Data request: Per the records of this test, what outcome belongs to `C=C1C[C@@]23CC[C@H]4[C@@](C)(CCC[C@@]4(C)C(=O)O)[C@@H]2CC[C@]1(O)C3` ?
Data returned: inactive

Data request: Per the records of this test, what outcome belongs to `COC(=O)c1ccccc1O` ?
Data returned: inactive

Data request: Per the records of this test, what outcome belongs to `Cc1ccc(N)cc1N` ?
Data returned: active

Data request: Per the records of this test, what outcome belongs to `O=[N+]([O-])c1ccc(CNc2ncnc3c2ncn3[C@@H]2O[C@H](CO)[C@@H](O)[C@H]2O)cc1` ?
Data returned: inactive

Data request: Per the records of this test, what outcome belongs to `CC(C)N=C(NC(C)C)OCc1ccc([N+](=O)[O-])cc1` ?
Data returned: active

Data request: Per the records of this test, what outcome belongs to `NNc1nncc2cnccc12` ?
Data returned: active

Data request: Per the records of this test, what outcome belongs to `Nc1ccc(Oc2ccc(N)c(N)c2)cc1` ?
Data returned: active

Data request: Per the records of this test, what outcome belongs to `CC(=O)Oc1ccc2c(CBr)cc(=O)oc2c1` ?
Data returned: inactive

Data request: Per the records of this test, what outcome belongs to `Nc1ncnc2c1nc(-c1ccc([N+](=O)[O-])cc1)n2-c1ccc([N+](=O)[O-])cc1` ?
Data returned: active

Data request: Per the records of this test, what outcome belongs to `O=[N+]([O-])c1ccc(-c2ccccc2)cc1` ?
Data returned: active
